Target: Gal4 (DBD) RARγ (LBD) hybrid receptor (Homo sapiens, UniProt P13631)
Construct: Gal4 (DBD) RARγ (LBD), or the Gal4 (DBD) RARβ (LBD) hybrid receptor; expressed in transfected cells; host or cells: HEK 293
Sequence (P13631 185-419 limits assumed): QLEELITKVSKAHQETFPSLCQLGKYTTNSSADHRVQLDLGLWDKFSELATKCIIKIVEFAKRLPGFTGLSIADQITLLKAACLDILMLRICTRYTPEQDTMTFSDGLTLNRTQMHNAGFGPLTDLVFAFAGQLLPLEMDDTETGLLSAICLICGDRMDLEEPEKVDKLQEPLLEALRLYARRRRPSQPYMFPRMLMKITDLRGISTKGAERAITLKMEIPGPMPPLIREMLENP
Test: Gal4 reporter assay to determine RAR receptor antagonist activity
Assay type: cell-based
Conditions: HEK 293 cells, antagonist mode against EC80 ATRA, 24 hours, luciferase
Assay endpoint: Kb (nM)
Write the answer as a number in nM, unit excluded.

What Kb value was documented for this compound, `CN1CCN(C(=O)c2ccc(-n3nc(-c4ccc(C(=O)O)cc4)cc3-c3cc(C(C)(C)C)cc(C(C)(C)C)c3)cc2)CC1` ?
23

What Kb value was documented for this compound, `CC(C)Sc1cc(-c2cc(-c3ccc(C(=O)O)cc3)nn2-c2ccc(C(=O)N(C)C)cc2)cc(C(C)(C)C)c1` ?
30.2

What Kb value was documented for this compound, `CC(C)(C)c1cc(-c2cc(-c3ccc(C(=O)O)cc3)nn2-c2ccc(S(C)(=O)=O)cc2)cc(C(C)(C)C)c1` ?
34.6

Let us move to another entry and its Kb.
What Kb value was documented for this compound, `CC(C)(C)c1cc(-c2cc(-c3ccc(C(=O)O)cc3)nn2-c2ccc(C(=O)N3CCOCC3)cc2)cc(C(C)(C)C)n1` ?
28.7

Origin of values: patent US20140275049A1
